Data origin: PubChem BioAssay (NCI)

# System: M14 melanoma
# assayProtocol: NCI-60 one-dose screen, 48 h (100 = growth as untreated, 0 = no growth, -100 = all killed)
# settings: 10 µM unless noted
The panel holds about 83,000 compounds, 20% with a hit somewhere; the sample as a whole holds those more often.
Listed next: entries and their corresponding growth.
// note: answer is a bare numeric in %

Worked examples, 3 compounds total:
Reported growth, compound `Cn1ncc(Cl)c1-c1cc(C(=O)N[C@H](CN)Cc2ccc(F)c(F)c2)oc1Cl` : ____
-78.5

Reported growth, compound `C#Cc1cccc(Nc2ncnc3cc(OC)c(OCCCCCCC(=O)NO)cc23)c1` : ____
2.66

Reported growth, compound `CCN(CC)CCNC(=O)c1c(C)[nH]c(/C=C2\C(=O)Nc3ccc(F)cc32)c1C` : ____
-77

Continuing:
Reported growth, compound `O=C(c1ccc(/C=C/c2n[nH]c3ccccc23)cc1)N1CCNCC1` : ____
27.8

Reported growth, compound `Cc1cnc(NC(=O)Nc2cc(Br)c(C)cc2OC[C@@H]2CNCCO2)cn1` : ____
-84.5

Reported growth, compound `CC/C(=C(\c1ccc(OCCN2CCCCCCC2)cc1)c1ccc(OC(=O)C2CCCCC2)cc1)c1ccc(Cl)cc1` : ____
91.1

Reported growth, compound Cc1cc(O)c2c(c1)C1OC(=O)CCCCCN1C1=C2C(=O)c2cccc(OC3CC(O)C(O)C(C)O3)c2C1=O (centres undefined) : ____
66.6

Reported growth, compound `COc1ccc2c(CCC(c3ccccc3)c3ccccc3)c3[n+](cc2c1OC)CCc1cc2c(cc1-3)OCO2` : ____
2.51

Reported growth, compound `O=[N+]([O-])c1cc(Br)cc2c1[nH]c1ccc(Br)cc12` : ____
70.5
